# Test system: pERK in HCT-116 cells (KRAS G13D)
# Experimental details: Phospho-ERK inhibition (AlphaLISA SureFire Ultra p-ERK 1/2), HCT116
# Format: cell-based, human
# Conditions used: HCT116 cells; class symbol
# Procedure: All cancer cell lines (A375, A101D, A2058, RKO, HT29 SK-MEL 30, IPC298, HepG2, HCT-116, Lovo, SWV620, SW480, NCI-H358, NCI-H2122, Calu-6, NCIH2087, NCIH1755, NCIH1666 and Mewo) were obtained from ATCC and cultured in RPMI-1640 medium (Gibco) supplemented with 5% heat inactivated fetal bovine serum (FBS, Wisent) at 37° C. under 5% CO2. Cells were maintained in T175 flasks (Greiner). […] The effect of each compound dilution on the pERK signal was expressed in % inhibition and calculated as follows. […]
What IC50 was measured for each of the following?

Compound: Cc1c(F)cccc1S(=O)(=O)Nc1ccc(F)c(Nc2ncnc3ccc(-n4cnc5c(NCCO)cccc54)nc23)c1F [Example 350]
IC50: < 500 nM
//
Compound: Cc1c(F)cccc1S(=O)(=O)Nc1ccc(F)c(Nc2ncnc3ccc(-n4cc5c(n4)CCCN5CCN)nc23)c1F [Example 362]
IC50: 1000 to 10000 nM
//
Compound: CC(C)(CN1CCOCC1)S(=O)(=O)c1cn(-c2ccc3ncnc(Nc4c(F)ccc(NS(=O)(=O)c5cccc(Cl)c5Cl)c4F)c3n2)c2ccccc12 [Example 457]
IC50: < 500 nM
//
Compound: O=S(=O)(Nc1ccc(F)c(Nc2ncnc3ccc(-n4cc(CC5CCN(CC(F)F)CS5(=O)=O)c5ccccc54)nc23)c1F)c1cccc(Cl)c1Cl (centres unmarked) [Example 488]
IC50: < 500 nM

Count: 2. Required value per item: IC50.
1. CC(=O)NCCN1CCCc2nn(-c3ccc4ncnc(Nc5c(F)ccc(NS(=O)(=O)c6cccc(F)c6C)c5F)c4n3)cc21 [Example 383]
2. Cc1cn(-c2ccc3ncnc(Nc4c(F)ccc(NS(=O)(=O)c5cccc(Cl)c5Cl)c4F)c3n2)cn1 [Example 553]

Resp:
["1000 to 10000 nM", "< 500 nM"]

Dear colleague, could you please provide IC50 for the compounds listed below?
1. Cc1c(F)cccc1S(=O)(=O)Nc1ccc(F)c(Nc2ncnc3ccc(-n4cnc5c(N(CCO)CCO)cccc54)nc23)c1F [Example 351]
2. CS(=O)(=O)c1cn(-c2ccc3ncnc(Nc4c(F)ccc(NS(=O)(=O)c5cccc(Cl)c5Cl)c4F)c3n2)c2ccccc12 [Ex 381]
3. Cc1c(F)cccc1S(=O)(=O)Nc1ccc(F)c(Nc2ncnc3ccc(-n4ncc5c4CCCN5C)nc23)c1F [Example 460]

Resp:
1: < 500 nM; 2: < 500 nM; 3: 1000 to 10000 nM

---

# System: pERK in HCT-116 cells (KRAS G13D)
# Experimental details: Phospho-ERK inhibition (AlphaLISA SureFire Ultra p-ERK 1/2), HCT116
# Format: cell-based, human
# Conditions used: HCT116 cells; class symbol
pIC50: −log10 of the molar value.
Assay endpoint: pIC50

Worked examples, 5 compounds total:
Compound: Cc1c(F)cccc1S(=O)(=O)Nc1ccc(F)c(Nc2ncnc3ccc(-n4ncc5c4CN(CC(N)=O)CC5)nc23)c1F
Measurement target: pERK in HCT-116 cells (KRAS G13D)
Assay endpoint: pIC50
Measured result: 5.00 to 6.00
//
Compound: O=S(=O)(Nc1ccc(F)c(Nc2ncnc3ccc(-n4cc(S(=O)(=O)C5CCN(CC6CC6)CC5)c5ccccc54)nc23)c1F)c1cccc(Cl)c1Cl
Measurement target: pERK in HCT-116 cells (KRAS G13D)
Assay endpoint: pIC50
Measured result: > 6.30
//
Compound: CC(C)(CC(F)F)S(=O)(=O)c1cn(-c2ccc3ncnc(Nc4c(F)ccc(NS(=O)(=O)c5cccc(Cl)c5Cl)c4F)c3n2)c2ccccc12
Measurement target: pERK in HCT-116 cells (KRAS G13D)
Assay endpoint: pIC50
Measured result: > 6.30
//
Compound: O=S(=O)(Nc1ccc(F)c(Nc2ncnc3ccc(-n4cnc5c(N6CC[C@@H](O)C6)nccc54)nc23)c1F)c1cccc(Cl)c1Cl
Measurement target: pERK in HCT-116 cells (KRAS G13D)
Assay endpoint: pIC50
Measured result: 5.00 to 6.00
//
Compound: O=S(=O)(Nc1ccc(F)c(Nc2ncnc3ccc(-n4cc(N5CCCCS5(=O)=O)c5ccccc54)nc23)c1F)c1cccc(Cl)c1Cl
Measurement target: pERK in HCT-116 cells (KRAS G13D)
Assay endpoint: pIC50
Measured result: > 6.30

Then there is this compound:
Req: Can you look up pIC50 on pERK in HCT-116 cells (KRAS G13D) for `CCN1CCN(S(=O)(=O)c2cn(-c3ccc4ncnc(Nc5c(F)ccc(NS(=O)(=O)c6cccc(Cl)c6Cl)c5F)c4n3)c3ccccc23)CC1` ?
Resp: > 6.30
